- Assayed Target: CYP2D6 (Homo sapiens, UniProt P10635)
- Sequence (P10635 whole entry): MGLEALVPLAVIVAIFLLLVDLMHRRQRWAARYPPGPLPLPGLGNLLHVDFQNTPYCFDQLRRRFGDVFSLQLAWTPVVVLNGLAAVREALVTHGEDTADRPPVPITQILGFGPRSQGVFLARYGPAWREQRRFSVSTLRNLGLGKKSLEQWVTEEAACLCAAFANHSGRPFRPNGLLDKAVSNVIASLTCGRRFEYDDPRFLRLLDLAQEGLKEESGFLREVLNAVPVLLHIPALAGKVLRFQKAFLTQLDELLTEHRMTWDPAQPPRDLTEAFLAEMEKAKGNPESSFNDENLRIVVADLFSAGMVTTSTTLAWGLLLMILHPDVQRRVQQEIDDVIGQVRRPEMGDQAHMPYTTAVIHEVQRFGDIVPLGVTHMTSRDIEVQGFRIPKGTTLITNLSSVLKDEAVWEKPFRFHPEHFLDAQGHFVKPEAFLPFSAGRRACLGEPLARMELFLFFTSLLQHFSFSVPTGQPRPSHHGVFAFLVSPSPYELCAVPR
- Experiment: Inhibition of CYP2D6 (unknown origin) assessed as residual activity at 25 uM using luciferin-ME EGE as substrate by CYP450-Glo assay
- Assay type: ADME
- Run Conditions: CYP2D6 enzyme (unknown origin), probe luciferin-ME EGE, read-out: Activity

Compound	Assayed Target	activity at 25 µM, %
COc1ccccc1N1CCN(CC(O)CN2C(=O)NC(C)(c3ccc(F)cc3)C2=O)CC1 (stereo unspecified)	CYP2D6 (Homo sapiens, UniProt P10635)	69.4

----------
Documented CLint scaled at 50 µM across a set of compounds
- Experiment: Intrinsic clearance in rat liver microsomes at 50 uM preincubated for 5 mins followed by NADPH addition measured up to 30 mins
- Format: ADME, microsome
- Run Conditions: read-out: CLH

Compound	CLint scaled at 50 µM [mL/min/kg]
O=C1CCc2ccc(OCCCCN3CCN(c4cccc(Cl)c4Cl)CC3)cc2N1	7.02
COc1ccccc1N1CCN(CC(O)CN2C(=O)NC(C)(c3ccc(F)cc3)C2=O)CC1 (configuration not stated)	21.2

----------
- Experiment: Effective permeability of the compound at 200 uM after 5 hrs by PAMPA
- Assay type: ADME
- Run Conditions: read-out: Peff
Entries and their Papp at 5 h, 200 µM values follow.

Compound	Papp at 5 h, 200 µM
Cn1c(=O)c2c(ncn2C)n(C)c1=O	3.61 ×10⁻⁶ cm/s
CCn1cc(C(=O)O)c(=O)c2cc(F)c(N3CCNCC3)cc21	0.95 ×10⁻⁶ cm/s
COc1ccccc1N1CCN(CC(O)CN2C(=O)NC(C)(c3ccc(F)cc3)C2=O)CC1 (stereo not drawn)	2.3 ×10⁻⁶ cm/s

----------
- Experiment: Cytotoxicity against human HepG2 cells assessed as ATP level at 100 uM after 120 mins by bioluminescence-based assay relative to control
- Format: cell-based
- Run Conditions: read-out: Activity

Compound	Readout Units	viability at 2 h, 100 µM
COc1ccccc1N1CCN(CC(O)CN2C(=O)NC(C)(c3ccc(F)cc3)C2=O)CC1 (stereo unspecified)	%	90

----------
- Experiment: Cytotoxicity against HEK293 cells assessed as cell viability at 100 uM after 48 hrs by EZ4U labeling based assay relative to control
- Run Conditions: human, read-out: Activity

Molecule	Readout Units	viability at 48 h, 100 µM
COc1ccccc1N1CCN(CC(O)CN2C(=O)NC(C)(c3ccc(F)cc3)C2=O)CC1 (stereo unspecified)	%	89.2

----------
- Tested on: P-gp
- Experiment: Activity at recombinant human Pgp expressed in cell membranes assessed as basal ATPase activity at 50 uM after 40 mins by P-gp Glo assay relative to control
- Assay type: ADME
- Run Conditions: cell membranes expressing recombinant human P-gp, read-out: Activity
Value Kind: activity at 40 min, 50 µM (%)

Compound	Readout Units	Measured Number
COc1ccccc1N1CCN(CC(O)CN2C(=O)NC(C)(c3ccc(F)cc3)C2=O)CC1 (stereo unspecified)	%	88.7

----------
- Experiment: Intrinsic clearance in human liver microsomes at 50 uM preincubated for 5 mins followed by NADPH addition measured up to 45 mins
- Type: ADME, microsome
- Run Conditions: read-out: CLH

Compound	Readout Units	CLint scaled at 50 µM
COc1ccccc1N1CCN(CC(O)CN2C(=O)NC(C)(c3ccc(F)cc3)C2=O)CC1 (stereo unspecified)	mL/min/kg	8.2

----------
- Test system: P-gp
- Experiment: Activity at recombinant human Pgp expressed in cell membranes assessed as basal ATPase activity at 200 uM after 200 mins by P-gp Glo assay relative to control
- Format: ADME
- Run Conditions: cell membranes expressing recombinant human P-gp, read-out: Activity
Value Kind: activity at 200 min, 200 µM

Molecule	Result
COc1ccc(CCN(C)CCCC(C#N)(c2ccc(OC)c(OC)c2)C(C)C)cc1OC (stereo unspecified)	> 160%
